- Tested on: Candida parapsilosis
- Method Notes: In-vitro minimum inhibitory concentration against the growth of Candida parapsilosis (ATCC 22019)
- Assay type: functional
- Experimental Context: Lodderomyces parapsilosis
This listing pairs compounds with measured MIC.
Measured Endpoint: MIC

- CCOC(=O)c1[nH]nc2c(O)c3ccccc3c(O)c12: 12.5 µg/mL
- CCCCNC(=O)c1[nH]nc2c1C(=O)c1ccccc1C2=O: > 50 µg/mL
- CCOC(=O)c1[nH]nc2c1C(=O)c1ccccc1C2=O: > 50 µg/mL

* * *

- System: Klebsiella pneumoniae
- Method Notes: In-vitro minimum inhibitory concentration against the growth of Klebsiella pneumoniae
- Assay type: functional
Measured Endpoint: MIC

• CCCCNC(=O)c1[nH]nc2c1C(=O)c1ccccc1C2=O = > 50 µg/mL
• NNC(=O)c1[nH]nc2c1C(=O)c1ccccc1C2=O = > 50 µg/mL
• O=C(NNc1ccc([N+](=O)[O-])cc1[N+](=O)[O-])c1[nH]nc2c(O)c3ccccc3c(O)c12 = > 50 µg/mL
